- TESTED TARGET: V1a (Homo sapiens, UniProt P37288)
- Sequence (P37288 whole entry): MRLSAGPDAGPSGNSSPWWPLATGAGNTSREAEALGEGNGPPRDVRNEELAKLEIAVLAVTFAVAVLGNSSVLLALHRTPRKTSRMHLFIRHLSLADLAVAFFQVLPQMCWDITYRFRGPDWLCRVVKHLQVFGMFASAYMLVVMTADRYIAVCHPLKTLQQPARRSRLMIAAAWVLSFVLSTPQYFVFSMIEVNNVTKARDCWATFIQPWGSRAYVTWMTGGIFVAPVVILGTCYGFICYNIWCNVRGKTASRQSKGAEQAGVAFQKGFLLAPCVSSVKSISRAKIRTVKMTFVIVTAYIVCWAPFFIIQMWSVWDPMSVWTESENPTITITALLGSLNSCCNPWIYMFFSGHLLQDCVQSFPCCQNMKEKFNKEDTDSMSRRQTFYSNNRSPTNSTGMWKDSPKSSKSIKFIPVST
- PROTOCOL SUMMARY: Human vasopression V1a receptor binding assay
- CONDITIONS USED: hV1a cell line (CHO); Table 18
pKi: −log10 of the molar value.

COMPOUND | pKi
O=C(NCc1cccc(C(F)(F)F)c1)[C@@H](CC(=O)N1CCC(CCN2CCCCC2)CC1)N1C(=O)[C@@H](N2C(=O)OC[C@@H]2c2ccccc2)[C@H]1/C=C/c1ccccc1 [Example 134A] | 8.10
O=C(NCc1cccc(C(F)(F)F)c1)[C@H](CC(=O)N1CCCN(Cc2ccccc2)CC1)N1C(=O)[C@@H](N2C(=O)OC[C@@H]2c2ccccc2)[C@H]1/C=C/c1ccccc1 | 8.29
O=C(NCc1cccc(C(F)(F)F)c1)[C@@H](CC(=O)N1CCC(CN2CCCCC2)CC1)N1C(=O)[C@@H](N2C(=O)OC[C@@H]2c2ccccc2)[C@H]1/C=C/c1ccccc1 [Example 134G] | 8.43
COc1cccc([C@H](C)NC(=O)[C@H](CCC(=O)N2CCN(C3CCCCC3)CC2)N2C(=O)[C@@H](N3C(=O)OC[C@@H]3c3ccccc3)[C@H]2/C=C/c2ccccc2)c1 | 8.82
C[C@@]1(N2C(=O)OC[C@@H]2c2ccccc2)C(=O)N([C@H](CC(=O)N2CCC(N3CCCCC3)CC2)C(=O)NCc2cccc(C(F)(F)F)c2)[C@@H]1/C=C/c1ccccc1 [Example 234A] | 8.28
Cc1ccc(C2(NC(=O)[C@H](CCC(=O)N3CCN(C4CCCCC4)CC3)N3C(=O)[C@@H](N4C(=O)OC[C@@H]4c4ccccc4)[C@H]3/C=C/c3ccccc3)CC2)cc1 [Example 221AP] | 8.42
O=C(NCc1cccc(C(F)(F)F)c1)[C@H](CCC(=O)N1CCN(CCN2CCOCC2)CC1)N1C(=O)[C@@H](N2C(=O)OC[C@@H]2c2ccccc2)[C@H]1/C=C/c1ccccc1 | 9.10

###

- TESTED TARGET: V1a (Homo sapiens)
- PROTOCOL SUMMARY: Human vasopression V1a receptor binding assay
- Design: host or cells: CHO cells (hV1a cell line), whole adherent cells
- CONDITIONS USED: hV1a cell line (CHO); Table 18
Ki values, listed per item

COMPOUND | Ki, nM
O=C(NCc1cccc(C(F)(F)F)c1)[C@H](CCC(=O)N1CCN(Cc2ccccc2)CC1)N1C(=O)[C@@H](N2C(=O)OC[C@@H]2c2ccccc2)[C@H]1/C=C/c1ccccc1 | 1.08
O=C(NCc1cccnc1)[C@H](CCC(=O)N1CCN(C2CCCCC2)CC1)N1C(=O)[C@@H](N2C(=O)OC[C@@H]2c2ccccc2)[C@H]1/C=C/c1ccccc1 | 9.8
CCCCN1CCN(C(=O)CCC(C(=O)NCc2cccc(C(F)(F)F)c2)N2C(=O)C(N3C(=O)OCC3c3ccccc3)C2C=Cc2ccccc2)CC1 (single isomer, unassigned) | 0.49

###

log10 Ki values, listed per item
- TESTED TARGET: V1a (Homo sapiens)
- PROTOCOL SUMMARY: Human vasopression V1a receptor binding assay
- CONDITIONS USED: hV1a cell line (CHO); Table 18
ENDPOINT NAME: log10 Ki (log10 of the value in nM)

COMPOUND | log10 Ki
COc1ccc(OC)c(CNC(=O)[C@H](CCC(=O)N2CCN(C3CCCCC3)CC2)N2C(=O)[C@@H](N3C(=O)OC[C@@H]3c3ccccc3)[C@H]2/C=C/c2ccccc2)c1 | -0.41
O=C(NCc1cccs1)[C@H](CCC(=O)N1CCN(C2CCCCC2)CC1)N1C(=O)[C@@H](N2C(=O)OC[C@@H]2c2ccccc2)[C@H]1/C=C/c1ccccc1 | -0.32
O=C(NC1CCc2ccccc21)[C@H](CCC(=O)N1CCN(C2CCCCC2)CC1)N1C(=O)[C@@H](N2C(=O)OC[C@@H]2c2ccccc2)[C@H]1/C=C/c1ccccc1 (some centres unmarked) | 0.05
O=C(C[C@@H](C(=O)NCc1cccc(C(F)(F)F)c1)N1C(=O)[C@@H](N2C(=O)OC[C@@H]2c2ccccc2)[C@H]1CCc1ccccc1)NC1CCN(Cc2ccccc2)CC1 | 1.36
O=C(N[C@@H]1CCCc2ccccc21)[C@H](CCC(=O)N1CCN(CCCO)CC1)N1C(=O)[C@@H](N2C(=O)OC[C@@H]2c2ccccc2)[C@H]1/C=C/c1ccccc1 [Example 221BI] | 1.54

###

log10 Ki values, listed per item
- TESTED TARGET: V1a (Homo sapiens)
- PROTOCOL SUMMARY: Human vasopression V1a receptor binding assay
- CONDITIONS USED: hV1a cell line (CHO); Table 18
ENDPOINT NAME: log10 Ki (log10 of the value in nM)

COMPOUND | TESTED TARGET | NUMERIC RESULT
O=C(N[C@@H]1CCCc2ccccc21)[C@H](CCC(=O)N1CCC[C@H]1CN1CCCC1)N1C(=O)[C@@H](N2C(=O)OC[C@@H]2c2ccccc2)[C@H]1/C=C/c1ccccc1 [Example 221Y] | V1a (Homo sapiens) | 0.67
Cc1ccc(CNC(=O)[C@H](CCC(=O)N2CCN(C3CCCCC3)CC2)N2C(=O)[C@@H](N3C(=O)OC[C@@H]3c3ccccc3)[C@H]2/C=C/c2ccccc2)o1 [Example 212] | V1a (Homo sapiens) | -0.24
CC(C)(C)OC(=O)N[C@@H]1CCN(C2CCN(C(=O)CC[C@@H](C(=O)NC3(c4ccccc4)CCCC3)N3C(=O)[C@@H](N4C(=O)OC[C@@H]4c4ccccc4)[C@H]3/C=C/c3ccccc3)CC2)C1 [Example 221AX] | V1a (Homo sapiens) | 1.71
O=C(NCc1cccc(C(F)(F)F)c1)[C@@H](CCC(=O)N1CCN(CCc2ccccc2)CC1)N1C(=O)[C@@H](N2C(=O)OC[C@@H]2c2ccccc2)[C@H]1/C=C/c1ccccc1 [Example 136] | V1a (Homo sapiens) | 1.52
O=C(NCc1cccc(C(F)(F)F)c1)C(C(=O)NC1CCN(Cc2ccccc2)CC1)N1C(=O)[C@@H](N2C(=O)OC[C@@H]2c2ccccc2)[C@H]1/C=C/c1ccccc1 (mixture of isomers) [Example 39] | V1a (Homo sapiens) | 1.12

###

IC50 values, listed per item
- TESTED TARGET: V1a (Homo sapiens, UniProt P37288)
- PROTOCOL SUMMARY: Human vasopression V1a receptor binding assay
- Set-up: host or cells: CHO cells (hV1a cell line), whole adherent cells
- CONDITIONS USED: hV1a cell line (CHO), 1 nM 3H-AVP; Table 17; read-out: V1a Binding Affinity (IC50 (nM))

COMPOUND | TESTED TARGET | RESULT QUALIFIER | IC50, nM
CCCCN1CCN(C(=O)CC[C@@H](C(=O)NCc2cccc(C(F)(F)F)c2)N2C(=O)[C@@H](N3C(=O)OC[C@@H]3c3ccccc3)[C@H]2/C=C/c2ccccc2)CC1 [Example 221AB] | V1a (Homo sapiens, UniProt P37288) | < | 10
Cc1cc(C)cc(CNC(=O)[C@H](CCC(=O)N2CCN(C3CCCCC3)CC2)N2C(=O)[C@@H](N3C(=O)OC[C@@H]3c3ccccc3)[C@H]2/C=C/c2ccccc2)c1 | V1a (Homo sapiens, UniProt P37288) | < | 10
O=C(C[C@@H](C(=O)NCc1cccc(C(F)(F)F)c1)N1C(=O)[C@@H](N2C(=O)OC[C@@H]2c2ccccc2)[C@H]1CCc1ccccc1)NC1CCN(Cc2ccccc2)CC1 | V1a (Homo sapiens, UniProt P37288) | = | 37
COc1cc(OC)cc(C(C)(C)NC(=O)[C@H](CCC(=O)N2CCN(C3CCCCC3)CC2)N2C(=O)[C@@H](N3C(=O)OC[C@@H]3c3ccccc3)[C@H]2/C=C/c2ccccc2)c1 | V1a (Homo sapiens, UniProt P37288) | = | 7.7
O=C(CC[C@@H](C(=O)N[C@@H]1CCCc2ccccc21)N1C(=O)[C@@H](N2C(=O)OC[C@@H]2c2ccccc2)[C@H]1/C=C/c1ccccc1)NCCN1CCCCC1 [Example 221X] | V1a (Homo sapiens, UniProt P37288) | = | 11.6
O=C(NCc1cc(C(F)(F)F)cc(C(F)(F)F)c1)[C@H](CCC(=O)N1CCN(C2CCCCC2)CC1)N1C(=O)[C@@H](N2C(=O)OC[C@@H]2c2ccccc2)[C@H]1/C=C/c1ccccc1 | V1a (Homo sapiens, UniProt P37288) | = | 7.26
COc1ccccc1CNC(=O)[C@H](CCC(=O)N1CCN(C2CCCCC2)CC1)N1C(=O)[C@@H](N2C(=O)OC[C@@H]2c2ccccc2)[C@H]1/C=C/c1ccccc1 | V1a (Homo sapiens, UniProt P37288) | = | 5.3
C[C@@]1(N2C(=O)OC[C@@H]2c2ccccc2)C(=O)N([C@H](CC(=O)N2CCC(N3CCCCC3)CC2)C(=O)NCc2cccc(C(F)(F)F)c2)[C@@H]1/C=C/c1ccccc1 [Example 234A] | V1a (Homo sapiens, UniProt P37288) | = | 8.6
O=C(N[C@@H]1CCCc2ccccc21)[C@H](CCC(=O)N1CCC[C@H]1CN1CCCC1)N1C(=O)[C@@H](N2C(=O)OC[C@@H]2c2ccccc2)[C@H]1/C=C/c1ccccc1 [Example 221Y] | V1a (Homo sapiens, UniProt P37288) | = | 7.6
